test: Acute toxicity tests; conditions: mouse, in vivo, ip; male mice, intraperitoneally, free form in isotonic saline solution or suspension; brackets = 95% confidence limit
test readout: LD50
Reply with the number and its unit after it.

| compound | LD50 |
| --- | --- |
| NCCCCCCCCCNc1ncnc2c1ncn2[C@@H]1O[C@H](COP(=O)(O)O)[C@@H](O)[C@H]1O [compound 7, N^6-(9-amino-n-nonyl)-5'-AMP] | 195 mg/kg |
| NCCCCCCCNc1ncnc2c1ncn2[C@@H]1O[C@H](CO)[C@@H](O)[C@H]1O [compound 3, N^6-(7-amino-n-heptyl)-Ado] | 145 mg/kg |
| NCCCCCCCCNc1ncnc2c1ncn2[C@@H]1O[C@H](CO)[C@@H](OP(=O)(O)O)[C@H]1O [compound 10, N^6-(8-amino-n-octyl)-3'-AMP] | 220 mg/kg |

**Query** Given the entry NCCCCCCNc1ncnc2c1ncn2[C@@H]1O[C@@H]2COP(=O)(O)O[C@H]2[C@H]1O [compound 12, N^6-(6-amino-n-hexyl)-cAMP] , report its measured LD50.
**Result** 165 mg/kg

**Query** Suppose we examine the compound NCCCCCCCCCNc1ncnc2c1ncn2[C@@H]1O[C@H](CO)[C@@H](O)[C@H]1O [compound 4, N^6-(9-amino-n-nonyl)-Ado] ; what LD50 value has been reported?
**Result** 175 mg/kg

Cited source: patent EP0061001A1
